# TARGET UNDER TEST: Cytochrome P450 2D6 (Homo sapiens) (UniProt P10635)
# Sequence (P10635 whole entry, looked up): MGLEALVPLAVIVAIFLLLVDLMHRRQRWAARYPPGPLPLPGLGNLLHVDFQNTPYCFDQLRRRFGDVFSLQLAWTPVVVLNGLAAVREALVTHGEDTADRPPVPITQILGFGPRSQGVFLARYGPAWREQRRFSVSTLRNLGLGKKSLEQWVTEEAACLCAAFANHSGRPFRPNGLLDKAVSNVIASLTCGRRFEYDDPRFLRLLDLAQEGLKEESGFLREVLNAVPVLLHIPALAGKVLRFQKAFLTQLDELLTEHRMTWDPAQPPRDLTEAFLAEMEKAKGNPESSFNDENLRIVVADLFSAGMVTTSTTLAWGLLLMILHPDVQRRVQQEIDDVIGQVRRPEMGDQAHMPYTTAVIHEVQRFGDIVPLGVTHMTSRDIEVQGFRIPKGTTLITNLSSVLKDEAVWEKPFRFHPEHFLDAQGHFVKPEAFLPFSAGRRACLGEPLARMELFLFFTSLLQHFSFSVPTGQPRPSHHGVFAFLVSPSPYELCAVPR
# PROCEDURE SUMMARY: Cytochrome panel assay with activity outcomes
# CONDITION DESCRIPTION: recombinant CYP, pro-luciferin dealkylation, luminescence, p450-cyp2d6; series mostly up to 57.1 µM
Screen size: about 16,000 compounds; about 2,600 (16%) were called active. Not shown: some 20% with an inconclusive outcome. Only a sample is shown.
PARAMETER MEASURED: AC50

Observe how each entry below is paired with its result.
{"COMPOUND STRUCTURE": "O=c1c(-c2cc(F)cc(F)c2)nc2cncnc2n1C1CC1", "RECORDED MEASUREMENT": "inactive"}
{"COMPOUND STRUCTURE": "COC(=O)[C@@]1(Cc2ccc(OC)cc2)[C@H]2c3cc(C(=O)N4CCCC4)n(CCn4cc([N+](=O)[O-])nc4C)c3C[C@H]2CN1C(=O)c1ccccc1", "RECORDED MEASUREMENT": "inactive"}
{"COMPOUND STRUCTURE": "COC(=O)[C@@]1(Cc2ccccc2)[C@H]2c3cc(C(=O)N(C)C)n(Cc4c(CO)[nH]cc(C)c4=O)c3C[C@H]2CN1C(=O)c1ccccc1", "RECORDED MEASUREMENT": "12.6 µM (active)"}
{"COMPOUND STRUCTURE": "Cc1ccc(SCc2cc(=O)[nH]c(/N=C(\\N)Nc3ccc(C)c(C)c3)n2)cc1", "RECORDED MEASUREMENT": "inactive"}
{"COMPOUND STRUCTURE": "COC(=O)[C@@]1(Cc2ccc(F)cc2)[C@H]2c3cc(C(=O)N4CCCC4)n(Cc4ccc(S(C)(=O)=O)cc4)c3C[C@H]2CN1C(=O)c1ccccc1", "RECORDED MEASUREMENT": "inactive"}
{"COMPOUND STRUCTURE": "COC(=O)[C@@]1(Cc2ccc(F)cc2)[C@H]2c3cc(C(=O)N(C)C)n(Cc4c(CO)[nH]cc(C)c4=O)c3C[C@H]2CN1C(=O)c1ccccc1", "RECORDED MEASUREMENT": "15.8 µM (active)"}
{"COMPOUND STRUCTURE": "Cc1ccc(C(=O)N/N=C/c2sc(=O)n(Cc3cccc(C(=O)O)c3)c2Cl)cc1", "RECORDED MEASUREMENT": "inactive"}

Next compound, please.
Which AC50 value is on record for `O=C(c1ccccc1)N1CCSC1=S` ?
inactive

---

# TARGET UNDER TEST: Cytochrome P450 2D6 (Homo sapiens) (UniProt P10635)
# PROCEDURE SUMMARY: Cytochrome panel assay with activity outcomes
# CONDITION DESCRIPTION: recombinant CYP, pro-luciferin dealkylation, luminescence, p450-cyp2d6; series mostly up to 57.1 µM
The campaign covered roughly 16,000 compounds. About 2,600 (16%) were called active. Inconclusive results (about 20%) are left out. Calls follow the shape of the dose curve; as a rule, active = well fitted curve in the direction sought with a large enough effect; inconclusive = small, poorly fitted or top-dose-only effect, or effect the other way; inactive = no such curve, though single readings can be large or run the other way. The list is a sample of the results.
Hello, when you answer, please use one of the following outcomes: class 1 = active, class 0 = inactive

{"COMPOUND": "COc1cc(Cl)c(C)cc1NC(=O)CNC(=O)Cn1cnc2ccccc2c1=O", "LABEL CLASS": "class 0"}
{"COMPOUND": "CN1CCC2(CC1)CCN(C(=O)c1ccncc1)CC2", "LABEL CLASS": "class 0"}
{"COMPOUND": "O=S(=O)(CC(O)COc1ccccc1Cl)c1ccccc1 (stereo unspecified)", "LABEL CLASS": "class 0"}
{"COMPOUND": "Cn1cc(-c2nc3cnc(Oc4ccccc4)nc3n(Cc3cccs3)c2=O)c2ccccc21", "LABEL CLASS": "class 0"}
{"COMPOUND": "CC(C)CN1CCCC2(CCN(C(=O)c3cnccn3)CC2)C1", "LABEL CLASS": "class 0"}

Could you check what this test reported for `O=C(c1cnccn1)N1CCC2(CC1)CCN(c1ncccn1)CC2` ?
class 0

Okay, and Cc1ccc(-c2ccc(/C=N/N3C(=O)C4C5C=CC(C6CC56)C4C3=O)o2)c([N+](=O)[O-])c1 (stereo unspecified) ?
class 0

Okay, and `O[C@@H](COc1ccc(Cl)cc1Cl)CN1CCCC1` ?
class 1

---

# TARGET UNDER TEST: Cytochrome P450 2D6 (Homo sapiens)
# PROCEDURE SUMMARY: Cytochrome panel assay with activity outcomes
# CONDITION DESCRIPTION: recombinant CYP, pro-luciferin dealkylation, luminescence, p450-cyp2d6; series mostly up to 57.1 µM
Out of some 16,000 compounds screened, about 2,600 (16%) were called active. Inconclusive results (about 20%) are left out. The call rests on the fitted dose curve; in most records, active means well fitted curve in the direction sought with a large enough effect; inconclusive means small, poorly fitted or top-dose-only effect, or effect the other way; inactive means no such curve, though single readings can be large or run the other way. A selection follows.
Hello, when you answer, please use one of the following outcomes: class 1 = active, class 0 = inactive

{"COMPOUND": "COc1ccc(CNc2nc3nc4c(c(=O)n3[nH]2)CCC4)cc1", "LABEL CLASS": "class 0"}
{"COMPOUND": "c1ccc(Nc2ncncc2-c2ccc3c(c2)OCO3)cc1", "LABEL CLASS": "class 1"}
{"COMPOUND": "CC(C(=O)NC1CCCC1)N(C(=O)c1ccc(-c2ccccc2)[nH]1)c1ccccc1F (configuration not stated)", "LABEL CLASS": "class 0"}
{"COMPOUND": "Fc1ccc2nc3[nH]c4ccccc4c3nc2c1", "LABEL CLASS": "class 0"}
{"COMPOUND": "Cn1c(-c2ccc3c(c2)OCO3)cc(=O)c2ccccc21", "LABEL CLASS": "class 1"}

Could you check what this test reported for `COC(=O)c1cc(C(=O)c2cccc(Cl)c2Cl)cn1C` ?
class 0

Okay, and `COCCn1c(=S)[nH]c2cc(C(=O)NC(C)C)ccc2c1=O` ?
class 0

Okay, and `O=C(N/C(=C/c1ccc(Br)cc1)c1nc2ccccc2[nH]1)c1ccco1` ?
class 1

Okay, and `Cn1cc(/C=C2/SC(=O)N(CC(=O)Nc3ccc4c(c3)OCO4)C2=O)c2ccccc21` ?
class 0

Okay, and `Fc1ccccc1OCCCCCCN1CCCC1` ?
class 1

Okay, and `C[C@@H]1CCN=C(N)S1` ?
class 0

Okay, and `Cc1cc(N2CCN(c3nc4ccccc4s3)CC2)n2ncnc2n1` ?
class 0

Okay, and Cc1ccc(C2(C)NC(=O)N(CC(=O)Nc3cc(C)on3)C2=O)cc1 (configuration not stated) ?
class 0

Okay, and `Cc1nn(Cc2ccccc2Cl)c(C)c1NC(=O)CCCn1nc(C)c([N+](=O)[O-])c1C` ?
class 0

Okay, and `COc1[nH]c2ccc(F)cc2c1C(=O)OCC1CCN(CCNS(C)(=O)=O)CC1` ?
class 0

Okay, and `Cc1cccc(CNc2ncncc2-c2ccc(C(=O)N(C)C)cc2)c1` ?
class 0

Okay, and `Cn1c(C(N)=O)cnc1Sc1ncc(C(F)(F)F)cc1Cl` ?
class 0

Okay, and `CCOC(=O)c1cc2c(C(F)(F)F)cc(-c3ccccc3)nc2o1` ?
class 0

Okay, and `Cc1cccc(-n2cccc2)c1C#N` ?
class 0

---

# TARGET UNDER TEST: Cytochrome P450 2D6 (Homo sapiens) (UniProt P10635)
# PROCEDURE SUMMARY: Cytochrome panel assay with activity outcomes; for activity, negative = inhibition: % is set by controls: 0 for no effect and ±100 for the full control effect
# CONDITION DESCRIPTION: recombinant CYP, pro-luciferin dealkylation, luminescence, p450-cyp2d6; series mostly up to 57.1 µM
Hit rate of the full screen: of about 16,000 compounds, about 2,600 (16%) were called active. About 20% were inconclusive and are not listed. These entries were drawn from the full list.
Recorded measurements of activity, negative = inhibition, one per entry

Which activity, negative = inhibition value is on record for `C/C(CCN1CCCCc2nc(C)c(C)cc21)=N\OC[C@@H](C)[C@H](OCc1ccccc1)C(C)C` ?
-1.58% [at 11.4 µM] (inactive)

Okay, and `CSc1ncnc2c1ncn2[C@@H]1O[C@@H](CO)[C@H](O)O[C@@H]1O` ?
14.1% [at 11.4 µM] (inactive)

Okay, and `O=C(O)c1ccc(CNCc2ccccc2)cc1` ?
8.97% [at 11.4 µM] (inactive)

Okay, and `NC1=C(O)C(=O)[C@H](c2c[nH]c3ccc(OCc4ccccc4)cc23)O1` ?
-2.34% [at 11.4 µM] (inactive)

Okay, and `C/C(CCN1CCCc2nc(C)c(C)cc21)=N\OC[C@@H](O)[C@@H]1O[C@@H]2OC(C)(C)O[C@@H]2[C@H]1O` ?
1.91% [at 11.4 µM] (inactive)

Okay, and `COC(=O)[C@@H]1CC[C@H](C)[C@@H](c2ccc(C)cc2)N1C(=O)c1ccc(/C=N\O[C@@H](C)CN2CCCCc3nc(C)c(C)cc32)cc1` ?
-20.9% [at 11.4 µM] (inactive)

---

# TARGET UNDER TEST: Cytochrome P450 2D6 (Homo sapiens) (UniProt P10635)
# PROCEDURE SUMMARY: Cytochrome panel assay with activity outcomes
# CONDITION DESCRIPTION: recombinant CYP, pro-luciferin dealkylation, luminescence, p450-cyp2d6; series mostly up to 57.1 µM
The whole screen tested about 16,000 compounds, of which about 2,600 (16%) were called active. Roughly 20% stayed inconclusive and do not appear here. Calls follow the shape of the dose curve; as a rule, active = well fitted curve in the direction sought with a large enough effect; inconclusive = small, poorly fitted or top-dose-only effect, or effect the other way; inactive = no such curve, though single readings can be large or run the other way. The list is a sample of the results.
Hello, when you answer, please use one of the following outcomes: yes (1) for active, no (0) for inactive

{"COMPOUND": "CC1(C)Cc2ccccc2C(NNC(=O)c2ccncc2)=N1", "LABEL CLASS": "yes (1)"}
{"COMPOUND": "CCC(C)NC(=O)C1c2cc(OC)c(OC)cc2C(=O)N(C)C1c1cccs1 (stereo unspecified)", "LABEL CLASS": "no (0)"}
{"COMPOUND": "CC(C)NNC(=O)c1ccncc1", "LABEL CLASS": "no (0)"}
{"COMPOUND": "CNC(=O)[C@H]1O[C@H](n2cnc3c(NCc4cccc(I)c4)ncnc32)[C@@H](O)[C@@H]1O", "LABEL CLASS": "no (0)"}
{"COMPOUND": "CCc1ccccc1NC(=O)c1ccc(F)c(S(=O)(=O)N2CCC(C(N)=O)CC2)c1", "LABEL CLASS": "no (0)"}

Could you check what this test reported for `O=C(N/N=C/C=C/c1ccc([N+](=O)[O-])cc1)c1cccs1` ?
no (0)

Okay, and COc1ccc(C(CNC(=O)c2cc(=O)[nH]c3ccccc23)N2CCCC2)cc1 (stereo unspecified) ?
yes (1)
